test system: LXFL 529; test: NCI tumour cell line growth inhibition, 48 h
Activity calls are given as the source filed them. Rule as the data show it: active = GI50 up to about 1.1 µM and inactive = higher.
# output must be one of yes (1) (active), no (0) (inactive)

NNC(=O)/C(=C/c1ccc(Cl)cc1Cl)NC(=O)c1ccccc1 : no (0)
CCOC(=O)C(Oc1ccc(OC)c2c1C(=O)CCC2)c1ccccc1 (stereo unspecified) : no (0)
O=C1C(CO)=C(CO)C(=O)c2c(O)ccc(O)c21 : yes (1)
CC(C)(C)C(=O)Cc1cc2c(cc1C(=O)O)S(=O)(=O)NC(C(C)(C)C)=C2 : no (0)
CC(=O)Nc1[nH]c(=O)[nH]c(=O)c1N(C(C)=O)C(C)=O : no (0)
CCC1(OC(=O)CN)C(=O)OCc2c1cc1n(c2=O)Cc2cc3ccccc3nc2-1 (stereo unspecified) : yes (1)
O=C(CC1(O)C(=O)Nc2c(Cl)ccc(Cl)c21)c1ccc2ccccc2c1 (stereo unspecified) : no (0)
COc1cc(/C=C\c2ccc(OC(C)=O)cc2)cc(OC)c1OC : no (0)

In: Each compound tested received a call. Report the one for O=C(c1ccc(Cl)cc1)c1ccc(OCC(=O)N2CCN(c3ccccc3)CC2)cc1 .
Out: no (0)

In: Would you mind doing CC(C(=O)n1c2ccccc2c2ccccc21)N(c1ccccc1)c1ccccc1 (stereo unspecified) as well?
Out: no (0)

In: Would you mind doing C/C=C(/I)CBr as well?
Out: no (0)

* * *

system: UACC-257; assay: NCI tumour cell line growth inhibition, 48 h
Activity calls are given as the source filed them. No stated cut-off is given here; in the data, active = GI50 up to about 1.1 µM and inactive = higher.
# output must be one of active, inactive

In: Each compound tested received a call. Report the one for COc1ccc(N2C(=O)C3c4[nH]c5ccc(OCc6ccccc6)cc5c4C4CCC(C(C)C)CC4C3C2=O)cc1 (stereo not given) .
Out: inactive

In: Would you mind doing Cc1ccc(NC(=O)CCC(=O)C2CC(=O)CC/C2=N\NC(=O)c2cc3ccccc3cc2O)cc1C (stereo not given) as well?
Out: inactive

In: Would you mind doing COc1ccc(Cc2nccc3cc(OC)c(OC)cc23)cc1 as well?
Out: inactive

In: Would you mind doing CCC1(OC(=O)CN)C(=O)OCc2c1cc1n(c2=O)Cc2cc3ccccc3nc2-1 (stereo not given) as well?
Out: active

In: Would you mind doing Cc1ccc(CCC(=O)C(=O)O)s1 as well?
Out: inactive

In: Would you mind doing COC(=O)C(Cc1nc2ccc(Cl)cc2nc1O)C(=O)C(=O)Nc1cc(C)ccc1C (stereo not given) as well?
Out: inactive

In: Would you mind doing CC(C)(C)c1ccc(OC(=O)Nc2ccc(O)c(C(=O)O)c2)cc1 as well?
Out: inactive

In: Would you mind doing CN(C)C1(N(C)C)Oc2c(c(=O)n(C)c(=O)n2C)C(c2ccccc2)C1(F)F (stereo not given) as well?
Out: inactive

In: Would you mind doing Cc1ccc2c(O)cc(-c3ccc(Cl)s3)nc2n1 as well?
Out: inactive

In: Would you mind doing CC1(C)N=C(Oc2ccccc2)n2nccc2N1 as well?
Out: inactive

In: Would you mind doing C=CCNC(=O)N(CCC)CCCCC(NC(C)=O)C(=O)NCc1ccccc1 (stereo not given) as well?
Out: inactive

In: Would you mind doing Cc1nc(O)nc2nc3cc(Cl)cc(Cl)c3c(NC(C)(CO)CO)c12 as well?
Out: inactive

In: Would you mind doing Nc1c(-c2ccc(-c3c(N)[n+]([O-])c4ccccc4[n+]3[O-])cc2)[n+]([O-])c2ccccc2[n+]1[O-] as well?
Out: inactive

In: Would you mind doing c1ccc([P+](CC[P+](c2ccccc2)(c2ccccc2)c2ccccc2)(c2ccccc2)c2ccccc2)cc1 as well?
Out: inactive

In: Would you mind doing CCCCCCOP(=O)(OCCCCCC)OC(C(=O)OC)C(F)(F)F (stereo not given) as well?
Out: inactive

* * *

test system: UO-31; assay: NCI tumour cell line growth inhibition, 48 h
Active and inactive are the calls of the source. No stated cut-off is given here; in the data, active = GI50 up to about 1.1 µM and inactive = higher.
# output must be one of T for active, F for inactive

Record excerpt, results attached:
COc1cc2c[n+](C)c3c4ccccc4ccc3c2cc1OC.COc1cc2cnc3c4ccccc4ccc3c2cc1OC : F
CCOC(=O)C(C(=S)SC)c1nn2c(=O)cc(C)nc2s1 (stereo unspecified) : F
CCCS(=O)(=O)O : F
CCOC(=O)c1ncn2c1[nH]c(=O)c1ccccc12 : F
Nc1c2c(nc3ccccc13)-c1ccccc1CCC2 : F

Next item in the queue.
In: Each compound tested received a call. Report the one for CC1=NN(C(=O)c2ccccc2O)C(c2ccccc2Cl)C1C(=O)Nc1ccccc1 (stereo unspecified) .
Out: T

* * *

tested on: MDA-N; assay: NCI tumour cell line growth inhibition, 48 h
Calls of active or inactive are those of the source. No stated cut-off is given here; in the data, active = GI50 up to about 1.1 µM and inactive = higher.
endpoint.name: GI50

Use these answered entries as a reference point.
CCOC(=O)c1sc2c(c1OC(=O)c1cccs1)c(=O)n(-c1ccccc1)c(=S)n2-c1ccccc1 : 30.5 µM (inactive)
CCCCCCCCCCCOCCC1C(C(C)OCCN2CCCC2)OC2OC(C)(C)OC21 (stereo not given) : 1.95 µM (inactive)
COc1ccc(-c2c(N)n(-c3nc4ccccc4s3)c(=O)c3cc([N+](=O)[O-])ccc23)cc1 : 70.5 µM (inactive)

Would you mind listing GI50 for each of the following molecules?
1. NC(=O)Cc1nc2c(O)ncnc2n1C1OC(CO)C(O)C1O (stereo not given)
2. COc1ccc(/C=C2\N=C3NC(=O)C(N4CCCCC4)=C(N)N3C2=O)cc1

Out:
1. > 100 µM (inactive)
2. > 100 µM (inactive)

* * *

tested on: SN12C; experiment: NCI tumour cell line growth inhibition, 48 h
Calls of active or inactive are those of the source. Cut-off read from the data, not from the text of the source: active = GI50 up to about 1.1 µM and inactive = higher.
# output must be one of yes for active, no for inactive

Record excerpt, results attached:
COc1cc([C@@H]2c3cc4c(cc3[C@@H](Nc3ccc(Cl)cc3C(=O)c3ccccc3)[C@H]3COC(=O)[C@H]23)OCO4)cc(OC)c1OC : yes
CCN(CC)CCC/N=c1\c2cc(OC)ccc2[nH]c2c([N+](=O)[O-])ccc(NCCCN(CC)CC)c12 : no
Cn1ncc2cc3c(Nc4ccc(Cl)cc4)cccc3nc21 : no
CSC1=N/C(=C\c2ccc(C)cc2)C(=O)N1 : no
[O-][Cl+3]([O-])([O-])[O-].c1ccc(-c2csc3c4ccccc4c4ccccc4[n+]23)cc1 : no

In: Each compound tested received a call. Report the one for COc1cc2c3cc1Oc1c(OC)c(OC)cc4c1C(Cc1ccc(O)c(c1)Oc1ccc(cc1)CC3N(C)CC2)CN(C)C4 (centres undefined) .
Out: no

In: Would you mind doing COC(=O)c1c(C)cc(OC)c(C/C=C(\C)CCCc2coc(C=C(C)C)c2)c1OC as well?
Out: no

In: Would you mind doing Nc1ccc(-c2nc3ccc(F)cc3s2)cc1Cl as well?
Out: no

In: Would you mind doing CC(Oc1cc2oc(=O)cc(-c3ccccc3)c2cc1Cl)C(=O)O (centres undefined) as well?
Out: no

* * *

system: SN12C; assay: NCI tumour cell line growth inhibition, 48 h
The source made the active and inactive calls. Cut-off read from the data, not from the text of the source: active = GI50 up to about 1.1 µM and inactive = higher.
Kindly state GI50 for each of the entries shown.

Use these answered entries as a reference point.
C=CCNc1nc2c(s1)C(=O)c1ccccc1C2=O : 11.6 µM (inactive)
CC(C)(C)C(=O)Cc1cc2c(cc1C(=O)O)S(=O)(=O)NC(C(C)(C)C)=C2 : > 100 µM (inactive)
COC(=O)c1cc(C)n(NC(=O)OC(C)(C)C)c1C : > 100 µM (inactive)
N#Cc1c(-c2cccc(Br)c2)cc(-c2ccc(Cl)cc2)nc1N : 19.1 µM (inactive)
CCCCCN(CCCCC)C(=O)[C@@H](CCC(=O)O)NC(=O)c1cc2ccccc2[nH]1 : 43.4 µM (inactive)

Would you mind listing GI50 for each of the following molecules?
1. Nc1ccn(CCOC(c2ccccc2)P(=O)(O)O)c(=O)n1 (configuration not stated)
2. Clc1ccc(-c2nnc(-c3nsc4ccccc34)o2)cc1

Out:
1. > 100 µM (inactive)
2. 36.6 µM (inactive)

* * *

test system: CCRF-CEM; experiment: NCI tumour cell line growth inhibition, 48 h
Active and inactive are the calls of the source. No stated cut-off is given here; in the data, active = GI50 up to about 1.1 µM and inactive = higher.
# output must be one of active, inactive

Record excerpt, results attached:
[N-]=[N+]=Nc1c(Cc2ccccc2)c(=O)oc2ccccc12 : inactive
CC1=NN(C(=O)c2ccccc2O)C(c2ccccc2Cl)C1C(=O)Nc1ccccc1 (stereo not given) : active
Cc1cc(O)cc(O)c1C(=O)O[C@]1(C)C(=O)C=C2C=C(/C=C/C(=O)O)OC=C2C1=O : inactive
COc1ccccc1C(=O)NCC1CCCN2CCCCC12 (stereo not given) : inactive
Cc1noc(NS(=O)(=O)c2ccc(NC(=O)c3ccc4nc5ccccc5c(Nc5ccc(S(=O)(=O)Nc6onc(C)c6C)cc5)c4c3)cc2)c1C : inactive

In: Each compound tested received a call. Report the one for C(=N/Nc1ccccn1)/c1cccnc1 .
Out: inactive

In: Would you mind doing CCCCn1c(-c2ccccc2)cs/c1=N\N=C1C=C(C(C)(C)C)C(=O)C(C(C)(C)C)=C1 as well?
Out: inactive

In: Would you mind doing C=CCC1=C2CCCCC2CCC1=O (stereo not given) as well?
Out: inactive

In: Would you mind doing O=C(O)c1cc(-c2ccc3cc4c(cc3c2)OCO4)nc2ccccc12 as well?
Out: inactive

In: Would you mind doing c1ccc2c(c1)Oc1cccc3cccc-2c13 as well?
Out: inactive

The measured values listed here are drawn from ChEMBL document CHEMBL1201862.
